# System: PDC KRAS tumor spheroids with HUVEC/MSC, viability
# Test method notes: Anticancer human tumor 349418-098-R-PDC patient-derived lung adenocarcinoma cell line growth inhibition [KRAS2]
# Condition info: curve of first compound; second compound 0.316 µM
Each entry below lists one item and its recorded IC50 value.

Known IC50 results, listed for orientation:
{"Compound": "COc1cc(Nc2ncc3c(n2)-c2ccc(Cl)cc2C(c2c(F)cccc2OC)=NC3)ccc1C(=O)O + CNCc1ccccc1-c1csc(C(C)Nc2nc(C)nc3cc(OC)c(OC)cc23)c1", "Tested on": "PDC KRAS tumor spheroids with HUVEC/MSC, viability", "IC50": "< 0.0316 µM"}
{"Compound": "CC1OCC2(CCN(c3cnc(Sc4ccnc(N)c4Cl)c(N)n3)CC2)C1N (configuration not stated) + C=CC(=O)N1CCN(c2nc(=O)n(-c3c(C)ccnc3C(C)C)c3nc(-c4c(O)cccc4F)c(F)cc23)C(C)C1", "Tested on": "PDC KRAS tumor spheroids with HUVEC/MSC, viability", "IC50": "> 10 µM"}
{"Compound": "Cn1ncnc1[C@H]1c2n[nH]c(=O)c3cc(F)cc(c23)N[C@@H]1c1ccc(F)cc1 + COc1cc2nc(C)nc(NC(C)c3cc(N)cc(C(F)(F)F)c3)c2cc1OC1CCOC1", "Tested on": "PDC KRAS tumor spheroids with HUVEC/MSC, viability", "IC50": "> 0.1 µM"}

Item: Cn1ncnc1[C@H]1c2n[nH]c(=O)c3cc(F)cc(c23)N[C@@H]1c1ccc(F)cc1 + CNCc1ccccc1-c1csc(C(C)Nc2nc(C)nc3cc(OC)c(OC)cc23)c1 | IC50: > 0.1 µM

Item: CC1OCC2(CCN(c3cnc(Sc4ccnc(N)c4Cl)c(N)n3)CC2)C1N (configuration not stated) + CNCc1ccccc1-c1csc(C(C)Nc2nc(C)nc3cc(OC)c(OC)cc23)c1 | IC50: > 10 µM

Item: CC(=O)Nc1cccc(-n2c(=O)n(C3CC3)c(=O)c3c(Nc4ccc(I)cc4F)n(C)c(=O)c(C)c32)c1 + C=CC(=O)N1CCN(c2nc(OCC3CCCN3C)nc3c2CCN(c2cccc4cccc(C)c24)C3)CC1CC#N | IC50: < 0.0001 µM

Item: Cn1ncnc1[C@H]1c2n[nH]c(=O)c3cc(F)cc(c23)N[C@@H]1c1ccc(F)cc1 + CC1OCC2(CCN(c3cnc(Sc4ccnc(N)c4Cl)c(N)n3)CC2)C1N | IC50: > 0.1 µM

Item: Cn1ncnc1[C@H]1c2n[nH]c(=O)c3cc(F)cc(c23)N[C@@H]1c1ccc(F)cc1 + C=CC(=O)N1CCN(c2nc(=O)n(-c3c(C)ccnc3C(C)C)c3nc(-c4c(O)cccc4F)c(F)cc23)C(C)C1 | IC50: > 0.1 µM

Item: Cn1nccc1Nc1nccc(-c2cc3c(s2)C(C)(C)N(CCN2CCOCC2)C3=O)n1 + CNCc1ccccc1-c1csc(C(C)Nc2nc(C)nc3cc(OC)c(OC)cc23)c1 | IC50: < 0.0316 µM

----------
# System: PDC KRAS tumor spheroids with HUVEC/MSC, viability
# Test method notes: Anticancer human tumor 349418-098-R-PDC cell line growth inhibition [KRAS2];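 note: spheroids exposed to compounds for seven days before readout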
# Condition info: second compound 3.16 µM; first compound 0.1 µM; stronger effect = lower value
Each entry below lists one item and its recorded viability, T/C value.
Numeric only. Scale: %

Known viability, T/C results, listed for orientation:
{"Compound": "COC(=O)c1ccc2c(C(=Nc3ccc(N(C)C(=O)CN4CCN(C)CC4)cc3)c3ccccc3)c(O)[nH]c2c1 + CNCc1ccccc1-c1csc(C(C)Nc2nc(C)nc3cc(OC)c(OC)cc23)c1", "Measurement unit": "%", "viability, T/C": 0.25}
{"Compound": "CC1(C)CCC(CN2CCN(c3ccc(C(=O)NS(=O)(=O)c4ccc(NCC5CCOCC5)c([N+](=O)[O-])c4)c(Oc4cnc5[nH]ccc5c4)c3)CC2)=C(c2ccc(Cl)cc2)C1 + COc1cc2nc(C)nc(NC(C)c3cc(N)cc(C(F)(F)F)c3)c2cc1OC1CCOC1", "Measurement unit": "%", "viability, T/C": 93.9}
{"Compound": "CC1(C)CCC(CN2CCN(c3ccc(C(=O)NS(=O)(=O)c4ccc(NCC5CCOCC5)c([N+](=O)[O-])c4)c(Oc4cnc5[nH]ccc5c4)c3)CC2)=C(c2ccc(Cl)cc2)C1 + C=CC(=O)N1CCN(c2nc(=O)n(-c3c(C)ccnc3C(C)C)c3nc(-c4c(O)cccc4F)c(F)cc23)C(C)C1", "Measurement unit": "%", "viability, T/C": 58.2}
{"Compound": "COC(=O)c1ccc2c(C(=Nc3ccc(N(C)C(=O)CN4CCN(C)CC4)cc3)c3ccccc3)c(O)[nH]c2c1 + CC1OCC2(CCN(c3cnc(Sc4ccnc(N)c4Cl)c(N)n3)CC2)C1N", "Measurement unit": "%", "viability, T/C": 101}

Consider the record given below.
Item: CC(C)n1nc(-c2ccc3oc(N)nc3c2)c2c(N)ncnc21 + CC1OCC2(CCN(c3cnc(Sc4ccnc(N)c4Cl)c(N)n3)CC2)C1N | viability, T/C: 5.21
